Where do the numbers come from? From the supplement of paper PMC10567573.

B1: MLL5 (parent)
chain: DCMGIDRQHIPDTYLCERCQPRNL

# Variants of: B1
# MEASUREMENT PROTOCOL: protein stability index of a GFP-peptide fusion (GPS, HEK-293T) (PSI 1-6); higher = more stable;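 further: lentivirally expressed fusions sorted by FACS into six bins by GFP to DsRed ratio, PSI derived from sequencing read proportions per bin multiplied by bin number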
# SETTINGS: c terminus: a fixed tail appended
ASSAY READOUT: protein stability index

> print(dat)
     var  experimental.value
 1   C2D                3.08
 2   D6Q                3.21
 3   D1K                2.58
 4   M3G                2.94
 5  Q20G                2.79
 6   D1F                1.89
 7   M3W                3.54
 8  I10E                3.72
 9  P21V                2.48
10   I5K                3.48
11  E17L                2.96
12  T13K                3.24
13  D12N                2.38
14  C16G                4.23
15  P21A                3.58
16   H9E                2.86
17   D6T                2.02
18  R22I                 2.9
19   C2L                2.73
20  E17W                2.02
21  D12L                1.93
22   M3Q                2.48
23  R22T                3.34
24  P11D                2.61
25   H9R                2.64
26   H9A                2.63
27  Y14L                2.56
28  D12Q                2.67
29  P21F                2.49
30  D12C                2.67
31  Q20E                3.21
32  I10C                3.62
33  T13R                3.63
34   R7C                4.09
35   R7N                 2.9
36  L15A                3.61
37   I5V                3.16
38  I10A                2.92
39  R22P                3.34
40   D6F                1.74
41  T13N                2.91
42   Q8M                2.58
43  Y14W                3.26
44   D6K                2.59
45  P21R                 3.4
46  Q20P                3.24
